Could you please report measured IC50 for the items listed next?
- system.under.test: glutamate dehydrogenase (GDH)
- method.description: 2,4-DNPH oxidative deamination assay with GDH
- Assay type: biochemical, thermophilic bacterium species
- details: 5 mM L-glutamate, 2.5 mM NAD^+, 0.25 μM GDH; brackets 95% confidence interval
Numbers only, in µM.

| compound | system.under.test | IC50 / µM |
| --- | --- | --- |
| C=C(CCC(=O)O)C(=O)O [2-MG, 2-methyleneglutaric acid, reference compound] | glutamate dehydrogenase (GDH) | 24.9 |

Shift focus to the following entry.
Form: compound = Oc1c(Cl)cc(Cl)c(Cl)c1Cc1c(O)c(Cl)cc(Cl)c1Cl [HCP, Hexachlorophene, reference compound] ; IC50 = 1.52

* * *

- system.under.test: PHD3 (Homo sapiens, UniProt Q9H6Z9)
- Sequence (Q9H6Z9 whole entry): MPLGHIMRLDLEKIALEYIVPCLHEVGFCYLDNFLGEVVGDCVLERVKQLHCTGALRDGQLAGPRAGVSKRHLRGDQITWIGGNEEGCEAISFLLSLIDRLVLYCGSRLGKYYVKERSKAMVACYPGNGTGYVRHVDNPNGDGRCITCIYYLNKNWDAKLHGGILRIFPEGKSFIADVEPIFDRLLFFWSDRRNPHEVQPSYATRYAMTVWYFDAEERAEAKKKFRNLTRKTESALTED
- method.description: 2,4-DNPH α-KG assay with PHD3
- details: 0.5 mM α-ketoglutarate, 100 μM HIF peptide, 10 μM PHD3; brackets 95% confidence interval
property: IC50 (µM)
One number for each entry, in µM.

Here [Cl-].[Cl-].[Co+2] [CoCl2, cobalt (II) chloride, reference compound] was tested on PHD3 (Homo sapiens, UniProt Q9H6Z9), and its IC50 came to 79.3
